target: cGMP-specific 3',5'-cyclic phosphodiesterase (Rattus norvegicus, UniProt O54735); test: Compound was tested for inhibition of stimulation of rat aortic smooth muscle cells (RSMC)
pEC50: −log10 of the molar value.
Measured pEC50, listed per entry for reference.
recorded-endpoint: pEC50

>>> measured("CCCOc1ccccc1-c1nc2c(c(C)nn2CCC)c(=O)[nH]1")
6.82
>>> measured("CCCOc1ccc(NC(N)=S)cc1-c1nc2c(c(C)nn2C)c(=O)[nH]1")
6.00
>>> measured("CCCOc1ccc(NC(=O)NCC)cc1-c1nc2c(c(C)nn2C)c(=O)[nH]1")
7.30
>>> measured("CCCOc1ccccc1-c1nc2c(c(C)nn2Cc2ccccc2)c(=O)[nH]1")
6.46
>>> measured("Cc1nn(C)c2nc(-c3ccccc3OC(C)C)[nH]c(=O)c12")
6.00
>>> measured("CCCOc1ccc(N)cc1-c1nc2c(c(C)nn2C)c(=O)[nH]1")
6.52
>>> measured("CCCOc1ccc([N+](=O)[O-])cc1-c1nc2c(c(C)nn2C)c(=O)[nH]1")
7.00
>>> measured("CCCOc1ccc(N(C)C)cc1-c1nc2c(c(C)nn2C)c(=O)[nH]1")
6.52
>>> measured("CCCOc1ccc(NC(=S)NC(=O)OCC)cc1-c1nc2c(c(C)nn2C)c(=O)[nH]1")
7.40
>>> measured("CCCOc1ccc(NS(C)(=O)=O)cc1-c1nc2c(c(C)nn2CC)c(=O)[nH]1")
6.70
>>> measured("CCCOc1ccc(NC(=O)OC)cc1-c1nc2c(c(C)nn2C)c(=O)[nH]1")
7.00
>>> measured("CCCOc1ccccc1-c1nc(O)c2c(C)csc2n1")
6.15
>>> measured("CCCOc1ccccc1-c1nc(O)c2scc(C)c2n1")
5.82
>>> measured("CCCOc1ccc(NS(C)(=O)=O)cc1-c1nc2c(c(C)nn2C)c(=O)[nH]1")
6.46
>>> measured("CCCOc1ccccc1-c1nc(O)c2sccc2n1")
6.00
>>> measured("CCCOc1ccccc1-c1nc2cnccc2c(=O)[nH]1")
5.70
>>> measured("CCCOc1ccc(NC(C)=O)cc1-c1nc2c(c(C)nn2CC)c(=O)[nH]1")
7.52
